molecular target: human ether-à-go-go-related gene (hERG) potassium channel (human, UniProt Q12809); test: primary screen, population patch clamp on CHO cells stably expressing hERG; higher = less effect of the substance;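 note: peak tail current of the secondary pulse compared with the same well before compound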
Sequence (Q12809 whole entry, looked up): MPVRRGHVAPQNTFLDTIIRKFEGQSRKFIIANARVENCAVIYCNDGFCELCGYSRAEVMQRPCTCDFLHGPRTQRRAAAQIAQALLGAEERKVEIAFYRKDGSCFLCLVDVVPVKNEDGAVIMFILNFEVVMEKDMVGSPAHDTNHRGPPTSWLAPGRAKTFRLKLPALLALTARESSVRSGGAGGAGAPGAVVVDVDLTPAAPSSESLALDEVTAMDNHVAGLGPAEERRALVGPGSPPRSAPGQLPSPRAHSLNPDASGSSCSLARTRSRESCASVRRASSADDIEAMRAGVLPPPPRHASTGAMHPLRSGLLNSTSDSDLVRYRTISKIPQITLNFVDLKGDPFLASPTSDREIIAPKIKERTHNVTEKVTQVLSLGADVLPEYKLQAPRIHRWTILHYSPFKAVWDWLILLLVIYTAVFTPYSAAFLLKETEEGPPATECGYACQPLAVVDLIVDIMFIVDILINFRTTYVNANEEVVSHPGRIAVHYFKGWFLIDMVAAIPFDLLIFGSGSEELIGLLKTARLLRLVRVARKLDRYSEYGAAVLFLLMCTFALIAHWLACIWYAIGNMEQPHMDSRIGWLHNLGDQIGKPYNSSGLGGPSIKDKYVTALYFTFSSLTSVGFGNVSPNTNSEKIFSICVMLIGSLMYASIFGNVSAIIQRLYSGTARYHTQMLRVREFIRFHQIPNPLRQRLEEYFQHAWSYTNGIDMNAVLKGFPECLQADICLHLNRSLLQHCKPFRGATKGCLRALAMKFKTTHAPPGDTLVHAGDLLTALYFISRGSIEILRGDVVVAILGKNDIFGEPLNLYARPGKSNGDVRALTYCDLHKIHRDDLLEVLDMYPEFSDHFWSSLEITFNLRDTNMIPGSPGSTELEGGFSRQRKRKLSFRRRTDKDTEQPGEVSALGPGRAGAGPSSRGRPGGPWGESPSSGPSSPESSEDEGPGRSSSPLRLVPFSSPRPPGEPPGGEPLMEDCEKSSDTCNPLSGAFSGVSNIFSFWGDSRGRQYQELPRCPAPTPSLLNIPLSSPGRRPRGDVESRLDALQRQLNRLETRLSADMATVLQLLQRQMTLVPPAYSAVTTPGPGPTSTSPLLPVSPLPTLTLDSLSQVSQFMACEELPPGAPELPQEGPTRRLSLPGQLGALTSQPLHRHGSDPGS
The whole screen tested about 310,000 compounds, of which about 14,000 (4.5%) showed an effect of 50% or more. The effect is printed as a negative number. The list comes from a sample in which strong results are over-represented; it also holds close analogues and randomly drawn compounds.
reportedEndpoint: hERG current change (%, negative = inhibition) at 10uM (%)
Answer format: numeric, % implied, no suffix.

Below, 5 compounds whose answers are already recorded.
O=C(CSc1nnc(NC(=O)C2CC2)s1)Nc1ccc(F)cc1; 12.5
O=C(c1cccn2c(=O)c3ccccc3nc12)N1CCN(c2ccccn2)CC1; -53
O=C(c1cccn2c(=O)c3cc4ccccc4cc3nc12)N1CCN(c2ccccc2)CC1; -7.73
CCN(CC(=O)Nc1c(F)cccc1F)C(=O)CCC(=O)c1ccc(F)cc1; -12.1
NNC(=O)c1csc(-c2cccc(C(F)(F)F)c2)n1; -30

input: Please indicate recorded hERG current change (%, negative = inhibition) at 10uM of `CCNCc1cc(Cl)c(OCc2ccccc2)c(OCC)c1.Cl` measured with human ether-à-go-go-related gene (hERG) potassium channel (human, UniProt Q12809).
output: -8.51

input: Please indicate recorded hERG current change (%, negative = inhibition) at 10uM of `CCN(CC(=O)Nc1c(F)cccc1F)C(=O)CCNC(=O)c1ccc([N+](=O)[O-])cc1` measured with human ether-à-go-go-related gene (hERG) potassium channel (human, UniProt Q12809).
output: -55.4

input: Please indicate recorded hERG current change (%, negative = inhibition) at 10uM of `COc1ccc(/C=C(/NC(=O)c2ccccc2)C(=O)N2CCCCC2)cc1` measured with human ether-à-go-go-related gene (hERG) potassium channel (human, UniProt Q12809).
output: -1.39

input: Please indicate recorded hERG current change (%, negative = inhibition) at 10uM of `CCOC(=O)N1CCN(C(=O)/C(=C/c2ccc(Br)cc2)NC(=O)c2ccc(OC)cc2)CC1` measured with human ether-à-go-go-related gene (hERG) potassium channel (human, UniProt Q12809).
output: -78.2

input: Please indicate recorded hERG current change (%, negative = inhibition) at 10uM of `CCOc1cc(CNCCc2ccc(S(N)(=O)=O)cc2)ccc1OCc1ccccc1.Cl` measured with human ether-à-go-go-related gene (hERG) potassium channel (human, UniProt Q12809).
output: -55.9

input: Please indicate recorded hERG current change (%, negative = inhibition) at 10uM of `COc1ccc(/C=C(/NC(=O)c2ccccc2)C(=O)N2CCCC2)cc1` measured with human ether-à-go-go-related gene (hERG) potassium channel (human, UniProt Q12809).
output: 2.89

input: Please indicate recorded hERG current change (%, negative = inhibition) at 10uM of `CCOc1ccc(N(CC(=O)NCc2ccc(Cl)cc2)S(=O)(=O)c2ccccc2)cc1` measured with human ether-à-go-go-related gene (hERG) potassium channel (human, UniProt Q12809).
output: 20.4

input: Please indicate recorded hERG current change (%, negative = inhibition) at 10uM of `Cc1ccccc1CS(=O)(=O)CCC(=O)NCCCN1CCN(c2ccccc2F)CC1` measured with human ether-à-go-go-related gene (hERG) potassium channel (human, UniProt Q12809).
output: -59.3

input: Please indicate recorded hERG current change (%, negative = inhibition) at 10uM of `O=C(c1cccn2c(=O)c3ccccc3nc12)N1CCC2(CC1)OCCO2` measured with human ether-à-go-go-related gene (hERG) potassium channel (human, UniProt Q12809).
output: 5.98

input: Please indicate recorded hERG current change (%, negative = inhibition) at 10uM of `CCN(CC(=O)Nc1ccccc1C(F)(F)F)C(=O)CCOc1ccc(C)cc1` measured with human ether-à-go-go-related gene (hERG) potassium channel (human, UniProt Q12809).
output: -13.1

input: Please indicate recorded hERG current change (%, negative = inhibition) at 10uM of `CCOc1ccc2ccccc2c1CNCCc1ccc(S(N)(=O)=O)cc1.Cl` measured with human ether-à-go-go-related gene (hERG) potassium channel (human, UniProt Q12809).
output: -73.1

input: Please indicate recorded hERG current change (%, negative = inhibition) at 10uM of `Cc1c(CN(C)Cc2cn(C)nc2-c2ccccc2F)[nH]c2ccccc12` measured with human ether-à-go-go-related gene (hERG) potassium channel (human, UniProt Q12809).
output: -6.24

input: Please indicate recorded hERG current change (%, negative = inhibition) at 10uM of `Cc1ccc(C(=O)Nc2cccc(C(F)(F)F)c2)cc1NC(=O)c1csc(-c2ccncc2)n1` measured with human ether-à-go-go-related gene (hERG) potassium channel (human, UniProt Q12809).
output: -62.5

input: Please indicate recorded hERG current change (%, negative = inhibition) at 10uM of `CCN1CCN(Cc2ccc(NC(=O)c3ccc(C)c(NC(=O)c4csc(-c5ccncc5)n4)c3)cc2C(F)(F)F)CC1` measured with human ether-à-go-go-related gene (hERG) potassium channel (human, UniProt Q12809).
output: 7.22

Data provenance is paper PMC4336329.
